- test.details: Hydrolysis of Doxaz to Doxorubicin in buffers (HPLC)
- Assay type: physicochemical
- conditions.used: 20 mM TEAA buffer, pH 7.5, pH 7.5, 14° C., 20 mM TEAA buffer; read-out: Half-life for hydrolysis of Doxaz to Doxorubicin at 14° C.
reported.metric: half-life at 100 µM (min)

smiles.repr	reported.metric	uom	readout.number
COc1cccc2c1C(=O)c1c(O)c3c(c(O)c1C2=O)C[C@@](O)(C(=O)CO)C[C@@H]3O[C@H]1C[C@@H]2NCO[C@@H]2[C@H](C)O1	half-life at 100 µM	min	16

---

- Tested on: MCF-7
- test.details: Growth inhibition of MCF-7 sensitive breast cancer cells (colony formation, crystal violet)
- Assay type: cell-based, human
- conditions.used: Homo sapiens, MCF7, 3 h, read-out: Growth inhibition IC50, MCF-7, 3 h, 3 h drug treatment; crystal violet
- Procedure: In vitro Activity. […] This cell suspension was dispensed in 200 μL aliquots (1000 cells/well) into the inside wells of 96-well tissue culture plates. Outside wells contained 200 μL of media. […] A more thorough characterization of the growth inhibition of a variety of cancer cells as well as rat cardiomyocytes by Formula IV (aFK-PABC-Doxaz) was evaluated in comparison with inhibition of growth by Doxaz, Dox and aFK-PABC-Dox. […]
pIC50: −log10 of the molar value.

compound	test.system	pIC50
COc1cccc2c1C(=O)c1c(O)c3c(c(O)c1C2=O)C[C@@](O)(C(=O)CO)C[C@@H]3O[C@H]1C[C@H](N)[C@H](O)[C@H](C)O1 [Doxorubicin, reference compound]	MCF-7	6.50

---

- test.system: human plasmin (Homo sapiens)
- Sequence (P00747 581-810 limits assumed): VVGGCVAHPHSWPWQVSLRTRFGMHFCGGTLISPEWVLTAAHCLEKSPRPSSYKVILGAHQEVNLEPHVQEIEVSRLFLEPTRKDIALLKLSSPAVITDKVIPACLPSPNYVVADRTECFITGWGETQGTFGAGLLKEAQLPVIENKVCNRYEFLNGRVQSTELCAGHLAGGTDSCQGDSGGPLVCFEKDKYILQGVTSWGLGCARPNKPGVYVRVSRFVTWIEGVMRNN
- Sequence (P00747 97-580 partner limits assumed): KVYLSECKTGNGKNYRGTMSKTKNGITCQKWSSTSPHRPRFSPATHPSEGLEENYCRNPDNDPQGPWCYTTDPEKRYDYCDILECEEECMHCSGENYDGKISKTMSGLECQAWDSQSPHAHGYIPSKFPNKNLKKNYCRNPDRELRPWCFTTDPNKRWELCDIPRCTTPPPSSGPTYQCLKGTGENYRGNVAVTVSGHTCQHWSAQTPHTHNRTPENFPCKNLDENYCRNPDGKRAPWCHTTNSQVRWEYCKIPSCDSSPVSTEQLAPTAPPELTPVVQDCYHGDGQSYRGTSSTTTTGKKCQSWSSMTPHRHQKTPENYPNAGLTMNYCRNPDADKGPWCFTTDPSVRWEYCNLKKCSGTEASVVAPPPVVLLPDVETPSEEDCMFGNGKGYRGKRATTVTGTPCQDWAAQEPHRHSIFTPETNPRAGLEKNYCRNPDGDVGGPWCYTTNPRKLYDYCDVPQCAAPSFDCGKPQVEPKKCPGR
- test.details: Plasmin activation of prodrug and release of Doxaz (HPLC)
- Assay type: biochemical
- conditions.used: human, human plasmin; 37° C.; read-out: Half-life in the presence of plasmin

smiles.repr	half-life
COc1cccc2c1C(=O)c1c(O)c3c(c(O)c1C2=O)C[C@@](O)(C(=O)CO)C[C@@H]3O[C@H]1C[C@H]2[C@H](OCN2C(=O)OCc2ccc(NC(=O)[C@H](CCCCN)NC(=O)[C@H](Cc3ccccc3)NC(=O)[C@@H](C)N)cc2)[C@H](C)O1	~6 min

---

- test.details: Hydrolysis of Doxaz to Doxorubicin in buffers (HPLC)
- Format: physicochemical
- conditions.used: 20 mM TEAA buffer, pH 7.4, aqueous media, pH 7.4, 37° C.; extrapolated from 14° C. (rate doubles per 10° C.); read-out: Half-life for hydrolysis of Doxaz to Doxorubicin at 37° C.
reported.metric: half-life at 100 µM

molecule	result
COc1cccc2c1C(=O)c1c(O)c3c(c(O)c1C2=O)C[C@@](O)(C(=O)CO)C[C@@H]3O[C@H]1C[C@@H]2NCO[C@@H]2[C@H](C)O1 [Doxaz, Doxazolidine]	3 to 4 min

---

- test.details: Hydrolysis of Doxaz to Doxorubicin in buffers (HPLC)
- Format: physicochemical
- conditions.used: 20 mM triethylammonium acetate (TEAA) buffer, pH 7.4, after prodrug activation near a tumor / in vivo; read-out: Half-life of Doxaz (conversion to Doxorubicin) after release

compound	half-life at 100 µM
COc1cccc2c1C(=O)c1c(O)c3c(c(O)c1C2=O)C[C@@](O)(C(=O)CO)C[C@@H]3O[C@H]1C[C@@H]2NCO[C@@H]2[C@H](C)O1 [Doxaz, Doxazolidine]	~3 min
